test system: HCT-116; experiment: Cytotoxicity against Homo sapiens (human) HCT116 cells assessed as growth inhibition after 48 hr by MTT assay; type: functional, cell-based; settings: HCT-116, 48 h
pIC50: −log10 of the molar value.
Observation type: pIC50

compound="O=c1[nH]cc(F)c(=O)[nH]1 [FLUOROURACIL]" observation_type=pIC50 comparative_sign== measurement=4.72
compound=CCCCCCCCCCn1c[n+](Cc2ccc(C[n+]3cn(CCCCCCCCCC)c4ccccc43)cc2)c2ccccc21 observation_type=pIC50 comparative_sign== measurement=5.48
compound=CCCCCCCCn1c[n+](Cc2ccc(C[n+]3cn(CCCCCCCC)c4ccccc43)cc2)c2ccccc21 observation_type=pIC50 comparative_sign== measurement=6.05
compound="c1ccc2[nH]cnc2c1 [BENZIMIDAZOLE]" observation_type=pIC50 comparative_sign=< measurement=3.70
compound=CCCCCCCCCn1c[n+](Cc2ccc(C[n+]3cn(CCCCCCCCC)c4ccccc43)cc2)c2ccccc21 observation_type=pIC50 comparative_sign== measurement=5.55
